Source of measurements: patent US9725442B2

- TEST_TARGET: UniProt:Q13258
- Sequence (Q13258 whole entry): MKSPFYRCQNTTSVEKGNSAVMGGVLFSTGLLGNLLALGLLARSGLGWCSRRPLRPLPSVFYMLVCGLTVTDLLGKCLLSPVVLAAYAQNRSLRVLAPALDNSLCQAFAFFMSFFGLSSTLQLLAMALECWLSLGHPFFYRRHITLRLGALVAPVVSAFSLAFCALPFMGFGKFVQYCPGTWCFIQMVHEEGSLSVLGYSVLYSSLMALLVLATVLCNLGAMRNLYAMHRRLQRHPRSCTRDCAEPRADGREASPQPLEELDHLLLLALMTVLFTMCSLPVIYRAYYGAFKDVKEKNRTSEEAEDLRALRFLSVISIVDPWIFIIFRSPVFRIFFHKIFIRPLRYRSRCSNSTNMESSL
- TEST_NAME: Human DP1 inhibitory activity in DP1-expressing cell (PGD2-induced cAMP)
- Assay type: cell-based
- DETAILS: IC50 of PGD2 (60 nM)-induced cAMP increase, human DP1 receptor expressing Jurkut cell
pIC50: −log10 of the molar value.
EXPERIMENTAL_ENDPOINT: pIC50

INSERT INTO results (compound, experimental_endpoint, recorded_value) VALUES
  ('CCOc1ccc(S(=O)(=O)N2C[C@@H](C)[C@@H](n3nc(CC(=O)O)c4c(C)cccc43)C2)cc1', 'pIC50', 7.89),
  ('CC(C)Oc1ccc(S(=O)(=O)N2C[C@H](n3nc(CC(=O)O)c4ccc(F)cc43)C[C@@H]2Cn2cccn2)cc1', 'pIC50', 7.23),
  ('CC(C)Oc1ccc(S(=O)(=O)N2C[C@H](n3nc(CC(=O)O)c4ccc(F)cc43)C[C@@H]2CO)cc1', 'pIC50', 7.00),
  ('CC(C)Oc1ccc(S(=O)(=O)N2C[C@@H](C)[C@H](n3nc(CC(=O)O)c4cc(Br)c(F)cc43)C2)cc1', 'pIC50', 8.52),
  ('CCOc1ccc(S(=O)(=O)N2C[C@@H](C)[C@@H](n3nc(C(C)C(=O)O)c4ccccc43)C2)cc1 (stereo partly drawn)', 'pIC50', 7.30);

[I] CC(C)Oc1ccc(S(=O)(=O)N2C[C@@H](C)[C@@H](n3nc(CC(=O)O)c4ccc(C(F)(F)F)cc43)C2)cc1
[II] CC(C)Oc1ccc(S(=O)(=O)N2C[C@H](n3nc(CC(=O)O)c4ccc(F)cc43)[C@@](C)(F)C2)cc1 (racemic)
Request: Larger number for pIC50: I , or II ? Could you answer with the label of the item you picked?
Result: I
(I: 8.00, II: 7.72)

[1] CCOc1ccc(S(=O)(=O)N2C[C@@H](C)[C@@H](n3nc(CC(=O)O)c4ccccc43)C2)s1
[2] CCOc1ccc(S(=O)(=O)N2C[C@@H](C)[C@@H](n3nc(CC(=O)O)c4ccccc43)C2)c(F)c1
Request: Given the listed items, does 1 or 2 have the lesser reported pIC50? Could you answer with the label of the item you picked?
Result: 1
(1: 7.24, 2: 7.57)
